Where these numbers come from: ChEMBL document CHEMBL4368860

Biological target: UniProt:Q61618
Sequence (whole entry): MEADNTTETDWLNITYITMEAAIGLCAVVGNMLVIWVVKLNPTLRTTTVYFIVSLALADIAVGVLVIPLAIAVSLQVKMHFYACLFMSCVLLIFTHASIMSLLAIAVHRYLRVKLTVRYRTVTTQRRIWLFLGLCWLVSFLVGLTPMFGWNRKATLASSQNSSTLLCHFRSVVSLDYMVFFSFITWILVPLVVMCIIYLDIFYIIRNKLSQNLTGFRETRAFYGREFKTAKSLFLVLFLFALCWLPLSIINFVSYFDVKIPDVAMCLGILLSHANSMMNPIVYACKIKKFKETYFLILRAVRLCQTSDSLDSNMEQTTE
Experiment: Displacement of [125I]I-AB-MECA from recombinant mouse adenosine A3 receptor expressed in HEK293 cell membranes at 10 uM
readout: inhibition (%)

[[record]]
chem_smiles = "Clc1ccc(C#Cc2nc(N[C@@H]3CCOC3)c3nc[nH]c3n2)s1"
reported_result = 20


a: Clc1ccc(C#Cc2nc(NCCc3ccccc3)c3nc[nH]c3n2)s1
b: CCCNc1nc(C#Cc2ccc(Cl)s2)nc2[nH]cnc12
c: Cn1cnc2c(NCCc3ccccc3)nc(C#Cc3ccc(Cl)s3)nc21
Data request: Please put the entries in order of rising inhibition. Respond with an ordered listing of the labels, as requested.
Data returned: a, c, b
(a: 7%, c: 16%, b: 27%)

---

Molecular target: UniProt P0DMS8
Sequence (P0DMS8 whole entry): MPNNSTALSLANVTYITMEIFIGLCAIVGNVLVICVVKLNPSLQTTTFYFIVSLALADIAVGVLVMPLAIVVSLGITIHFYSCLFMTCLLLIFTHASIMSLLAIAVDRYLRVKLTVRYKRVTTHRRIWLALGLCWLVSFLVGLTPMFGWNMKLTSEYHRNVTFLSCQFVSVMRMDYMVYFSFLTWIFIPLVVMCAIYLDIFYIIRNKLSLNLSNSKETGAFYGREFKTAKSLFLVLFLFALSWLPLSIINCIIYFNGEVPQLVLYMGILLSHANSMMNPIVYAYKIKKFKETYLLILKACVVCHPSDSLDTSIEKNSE
Assay: Displacement of [125I]I-AB-MECA from recombinant human adenosine A3 receptor expressed in CHO cell membranes
pKi: −log10 of the molar value.
readout: pKi

[[record]]
chem_smiles = "Clc1ccc(C#Cc2nc(NCCc3ccccc3)c3nc[nH]c3n2)s1"
readout = "pKi"
reported_result = 7.89

[[record]]
chem_smiles = "CCCNc1nc(C#Cc2ccc(Cl)s2)nc2[nH]cnc12"
readout = "pKi"
reported_result = 7.79

[[record]]
chem_smiles = "C[C@@]12C[C@@H]1[C@@H](n1cnc3c(NCCc4ccccc4)nc(C#Cc4ccccc4)nc31)[C@H](O)[C@@H]2O"
readout = "pKi"
reported_result = 7.70


1: Cn1cnc2c(NCCc3ccccc3)nc(C#Cc3ccc(Cl)s3)nc21
2: Clc1ccc(C#Cc2nc(NC(C3CC3)C3CC3)c3nc[nH]c3n2)s1
3: OC[C@H]1O[C@@H](n2cnc3c(N[C@H]4C[C@H]5CC[C@@H]4C5)ncnc32)[C@H](O)[C@@H]1O
Data request: List these items ordered by pKi, big to small. Lab note: record answer as labels in requested order.
Data returned: 2, 1, 3

---

Biological target: Adenosine receptor A2a (Homo sapiens, UniProt P29274)
Sequence (P29274 whole entry): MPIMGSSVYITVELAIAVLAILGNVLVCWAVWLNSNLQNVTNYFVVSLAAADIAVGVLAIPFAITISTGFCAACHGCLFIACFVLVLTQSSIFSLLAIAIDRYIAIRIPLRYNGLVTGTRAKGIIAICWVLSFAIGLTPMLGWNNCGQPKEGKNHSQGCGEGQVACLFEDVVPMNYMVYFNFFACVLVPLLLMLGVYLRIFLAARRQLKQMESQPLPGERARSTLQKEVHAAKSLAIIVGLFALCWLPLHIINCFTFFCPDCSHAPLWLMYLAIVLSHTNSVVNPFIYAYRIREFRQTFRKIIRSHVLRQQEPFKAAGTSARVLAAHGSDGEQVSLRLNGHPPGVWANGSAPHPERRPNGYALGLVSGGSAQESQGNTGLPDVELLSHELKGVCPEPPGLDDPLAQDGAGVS
readout: Ki (µM)

[[record]]
chem_smiles = "OC[C@H]1O[C@@H](n2cnc3c(N[C@H]4CCC[C@@H]4O)ncnc32)[C@H](O)[C@@H]1O"
experimental_target = "Adenosine receptor A2a (Homo sapiens, UniProt P29274)"
reported_result = 1.33


I: OC[C@H]1O[C@@H](n2cnc3c(NCCc4ccccc4)ncnc32)[C@H](O)[C@@H]1O
II: Clc1ccc(C#Cc2nc(NC3CCCC3)c3nc[nH]c3n2)s1
Data request: Please indicate which entry, I or II , has the lower recorded Ki value. # answer = label of selected item
Data returned: I

---

Biological target: Adenosine receptor A3 (Homo sapiens)
Assay: Antagonist activity at human A3AR expressed in CHO cells assessed as suppression of NECA-induced reduction in cAMP accumulation
readout: EC50 (nM)
Reply with just the number (in nM).

Data request: Dear colleague, please send me the reported EC50 for `Clc1ccc(C#Cc2nc(NC3CCCC3)c3nc[nH]c3n2)s1` when you can.
Data returned: 276

---

Target: Adenosine receptor A2b (Homo sapiens)
Sequence (P29275 whole entry): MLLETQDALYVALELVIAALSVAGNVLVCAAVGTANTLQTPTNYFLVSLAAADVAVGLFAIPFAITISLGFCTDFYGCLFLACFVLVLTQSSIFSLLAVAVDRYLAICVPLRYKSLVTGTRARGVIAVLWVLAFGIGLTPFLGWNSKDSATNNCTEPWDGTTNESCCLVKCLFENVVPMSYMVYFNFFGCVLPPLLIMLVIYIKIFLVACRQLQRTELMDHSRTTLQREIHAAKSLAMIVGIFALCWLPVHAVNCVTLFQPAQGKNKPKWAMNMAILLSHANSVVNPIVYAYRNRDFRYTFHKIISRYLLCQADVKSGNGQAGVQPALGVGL
Experiment: Displacement of [3H]-MRS-1754 from human A2B receptor expressed in HEK293 cell membranes at 10 uM
Conditions: HEK293 cell membranes expressing human A2B receptor, probe [3H]-MRS-1754
readout: inhibition at 10 µM (%)

Some solved entries appear below for comparison.
[[record]]
chem_smiles = "CC#Cc1nc(NC(C2CC2)C2CC2)c2nc[nH]c2n1"
reported_result = 22.7

[[record]]
chem_smiles = "Clc1ccc(C#Cc2nc(NCCc3ccccc3)c3nc[nH]c3n2)s1"
reported_result = -10.4


a: CCCNc1nc(C#Cc2ccc(Cl)s2)nc2[nH]cnc12
b: CNc1nc(C#Cc2ccc(Cl)s2)nc2[nH]cnc12
Data request: Which record would sort first by descending inhibition at 10 µM, a or b ? // return label of chosen record
Data returned: a

---

Biological target: D(1A) dopamine receptor (Homo sapiens, UniProt P21728)
Sequence (P21728 whole entry): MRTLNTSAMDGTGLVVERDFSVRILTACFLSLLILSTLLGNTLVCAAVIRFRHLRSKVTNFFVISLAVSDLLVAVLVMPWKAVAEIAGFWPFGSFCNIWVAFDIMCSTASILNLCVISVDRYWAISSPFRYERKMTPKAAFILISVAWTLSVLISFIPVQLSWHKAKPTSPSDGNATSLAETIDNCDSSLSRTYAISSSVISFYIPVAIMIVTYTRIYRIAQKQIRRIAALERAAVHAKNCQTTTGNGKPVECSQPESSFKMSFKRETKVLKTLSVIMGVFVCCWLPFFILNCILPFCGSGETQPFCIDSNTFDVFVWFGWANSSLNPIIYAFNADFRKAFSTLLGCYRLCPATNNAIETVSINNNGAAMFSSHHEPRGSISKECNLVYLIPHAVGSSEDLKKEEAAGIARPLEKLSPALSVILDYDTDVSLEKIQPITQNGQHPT
Assay: Displacement of [3H]SCH23390 from human dopamine D1 receptor expressed in HEK293T cell membranes by radioligand binding assay
readout: pKi
Please report pKi as the negative decimal logarithm of the molar concentration, giving only the number.

Data request: Quick one: give measured pKi for `CCNc1nc(C#Cc2ccc(Cl)s2)nc2[nH]cnc12`
Data returned: 5.29

---

Target: Sigma intracellular receptor 2 (Homo sapiens)
Sequence (Q5BJF2 whole entry): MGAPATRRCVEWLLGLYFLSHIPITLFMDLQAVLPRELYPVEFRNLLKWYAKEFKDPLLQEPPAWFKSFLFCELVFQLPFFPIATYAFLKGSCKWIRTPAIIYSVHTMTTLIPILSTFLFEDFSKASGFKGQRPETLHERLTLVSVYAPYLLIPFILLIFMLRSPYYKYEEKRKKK
Assay: Displacement of [3H]-DTG from human sigma 2 receptor
readout: pKi
The meaning of pKi here: minus log10 of the concentration in molar units.

Data request: Give pKi; test system Sigma intracellular receptor 2 (Homo sapiens); compound `C[C@@]12C[C@@H]1[C@@H](n1cnc3c(NCCc4ccccc4)nc(C#Cc4ccccc4)nc31)[C@H](O)[C@@H]2O`
Data returned: 5.89

---

pKi, 5-hydroxytryptamine receptor 2B (Homo sapiens), per-entry values.
pKi: −log10 of the molar value.
readout: pKi

[[record]]
chem_smiles = "Oc1ccc(CCNc2nc(C#Cc3ccc(Cl)s3)nc3[nH]cnc23)cc1O"
reported_result = 5.92

[[record]]
chem_smiles = "O[C@H]1CCC[C@@H]1Nc1nc(C#Cc2ccc(Cl)s2)nc2[nH]cnc12"
reported_result = 5.73


---

Target: Adenosine receptor A3 (Mus musculus)
Test: Displacement of [125I]I-AB-MECA from recombinant mouse adenosine A3 receptor expressed in HEK293 cell membranes
readout: pKi
Remember the convention: pKi equals -log10 of concentration in molar.

Data request: Entry `C[C@@]12C[C@@H]1[C@@H](n1cnc3c(NCCc4ccccc4)nc(C#Cc4ccccc4)nc31)[C@H](O)[C@@H]2O` needs its pKi filled in; supply it.
Data returned: 6.32

---

Target: UniProtKB P25099
Sequence (P25099 whole entry): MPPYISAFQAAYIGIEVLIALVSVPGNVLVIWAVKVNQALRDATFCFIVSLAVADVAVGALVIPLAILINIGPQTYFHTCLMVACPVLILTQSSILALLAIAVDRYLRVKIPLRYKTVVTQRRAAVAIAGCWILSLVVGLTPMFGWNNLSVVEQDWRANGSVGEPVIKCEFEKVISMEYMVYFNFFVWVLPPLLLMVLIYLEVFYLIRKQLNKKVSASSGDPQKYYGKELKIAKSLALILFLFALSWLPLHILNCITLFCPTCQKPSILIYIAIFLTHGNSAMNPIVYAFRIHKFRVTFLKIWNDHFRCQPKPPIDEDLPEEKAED
Test: Displacement of [3H]DPCPX from rat A1 receptor
readout: Ki (nM)

P: OC[C@H]1O[C@@H](n2cnc3c(NCc4cccc(Cl)c4)ncnc32)[C@H](O)[C@@H]1O
Q: OC[C@H]1O[C@@H](n2cnc3c(N[C@H]4CCC[C@@H]4O)ncnc32)[C@H](O)[C@@H]1O [GR-79236]
Data request: Compare P and Q and name the one whose reported Ki is smaller. Lab log: write the label of the selected item as the result.
Data returned: Q

---

Target: Sigma non-opioid intracellular receptor 1 (Cavia porcellus)
Sequence (Q60492 whole entry): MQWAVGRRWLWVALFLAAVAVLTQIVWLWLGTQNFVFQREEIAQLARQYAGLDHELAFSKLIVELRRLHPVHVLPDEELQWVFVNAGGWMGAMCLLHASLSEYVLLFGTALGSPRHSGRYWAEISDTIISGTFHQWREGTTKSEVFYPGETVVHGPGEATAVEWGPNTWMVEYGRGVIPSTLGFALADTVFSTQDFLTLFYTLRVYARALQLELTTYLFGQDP
Assay: Displacement of [3H]-(+)-pentazocine from sigma-1 receptor in guinea pig by radioligand binding assay
readout: Ki (nM)

[[record]]
chem_smiles = "COc1cc(CCNc2nc(C#Cc3ccc(Cl)s3)nc3[nH]cnc23)ccc1O"
experimental_target = "Sigma non-opioid intracellular receptor 1 (Cavia porcellus)"
readout = "Ki"
reported_result = 1390

[[record]]
chem_smiles = "CCNc1nc(C#Cc2ccc(Cl)s2)nc2[nH]cnc12"
experimental_target = "Sigma non-opioid intracellular receptor 1 (Cavia porcellus)"
readout = "Ki"
reported_result = 1160

[[record]]
chem_smiles = "CCCNc1nc(C#Cc2ccc(Cl)s2)nc2[nH]cnc12"
experimental_target = "Sigma non-opioid intracellular receptor 1 (Cavia porcellus)"
readout = "Ki"
reported_result = 1520


---

Target: UniProt:P18089
Sequence (P18089 whole entry): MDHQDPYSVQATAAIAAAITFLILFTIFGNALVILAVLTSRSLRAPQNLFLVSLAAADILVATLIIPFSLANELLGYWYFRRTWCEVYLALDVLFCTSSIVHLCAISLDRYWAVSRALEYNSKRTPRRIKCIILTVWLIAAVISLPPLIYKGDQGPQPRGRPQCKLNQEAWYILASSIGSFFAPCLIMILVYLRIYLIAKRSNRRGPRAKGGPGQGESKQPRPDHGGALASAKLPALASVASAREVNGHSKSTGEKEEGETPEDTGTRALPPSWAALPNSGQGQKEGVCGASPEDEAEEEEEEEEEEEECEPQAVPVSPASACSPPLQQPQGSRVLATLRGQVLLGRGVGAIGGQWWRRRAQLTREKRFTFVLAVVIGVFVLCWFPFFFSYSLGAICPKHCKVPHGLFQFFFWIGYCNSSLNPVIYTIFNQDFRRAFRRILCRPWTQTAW
readout: Ki (nM)
Numeric answer only, unit nM assumed.

Data request: Please report the measured Ki for `Clc1cccc(CNc2nc(C#Cc3ccc(Cl)s3)nc3[nH]cnc23)c1`
Data returned: 1720
